Molecular target: T1, cynomolgus CD137 (cynomolgus monkey)
T1 chain: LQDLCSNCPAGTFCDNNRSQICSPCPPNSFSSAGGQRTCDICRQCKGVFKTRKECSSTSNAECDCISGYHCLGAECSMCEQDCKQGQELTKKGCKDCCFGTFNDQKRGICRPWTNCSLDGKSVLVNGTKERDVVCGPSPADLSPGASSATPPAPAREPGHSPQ
Assay: SPR
measureName: Kd (nM)
Please give a number only; it is taken to be in nM.

Look at this binder and give its reported Kd. DART-G2 (CD137 arm) (antibody, V domains shown) VH: QVQLVQSGAEVKKPGASVKVSCKASGYTFTSYWINWVKQAPGQGLEWIGNIYPSDSYTNYNQKFKDKATITADKSTSTAYMELSSLRSEDTAVYYCTRDYGSAYSMSTWGQGTTVTVSS VL: DIQMTQSPSSLSASVGDRVTITCRPSQDISNYLNWYQQKPDKTVKLLIYYTSRLRSGVPSRFSGSGSGTDFTFTISSLQPEDIATYFCQQGDTLPYTFGQGTKLEIK
64
